All values here come from ChEMBL document CHEMBL3272044.

Would you kindly list Ratio for each of these compounds?
- Species: Cavia porcellus
- experiment.description: Activity at muscarinic receptor in guinea pig terminal ileum assessed as compound required for 50% effect relative to acetylcholine
- Type: tissue-based
Number only, no unit.

Input "C[N+](C)(C)CC1CCCCC1" . Output Ratio: 203

Input "C[N+](C)(C)C[C@H]1CCC(=O)C1" . Output Ratio: 50

Input "C[N+](C)(C)C[C@H]1CC[C@@H](O)C1" . Output Ratio: 3590

Input "C[N+](C)(C)C[C@H]1CC[C@H](O)C1" . Output Ratio: 221

###

Would you kindly list Ratio for each of these compounds?
- Species on record: Cavia porcellus
- experiment.description: Activity at muscarinic receptor in guinea pig terminal ileum assessed as compound required for 50% effect relative to acetylcholine
- Type: tissue-based
Number only, no unit.

Input "C[N+](C)(C)CC1CC=CC1" . Output Ratio: 11

Input "C[C@H]1C[C@H](C[N+](C)(C)C)C[C@@H]1O" . Output Ratio: 100

Input "C[N+](C)(C)C[C@@H]1CC=CCC1" . Output Ratio: 269

Input "C[N+](C)(C)C[C@H]1CCCC(=O)C1" . Output Ratio: 507

Input "C[C@H]1C[C@H](C[N+](C)(C)C)C[C@H]1O" . Output Ratio: 454

Input C[N+](C)(C)C[C@H]1CCC[C@H](O)C1 (relative stereo) . Output Ratio: 2900

Input "C[N+](C)(C)CC1CCCC1" . Output Ratio: 16

Input "C[C@@H]1C[C@H](C[N+](C)(C)C)C[C@@H]1O" . Output Ratio: 500

Input "C[C@H]1CC[C@@H](C[N+](C)(C)C)C1" . Output Ratio: 100

Input "C[C@@H]1C[C@H](C[N+](C)(C)C)C[C@H]1O" . Output Ratio: 9.8

Input "CC1=CC[C@@H](C[N+](C)(C)C)C1" . Output Ratio: 30

Input CC1C[C@H](C[N+](C)(C)C)CC1=O (stereo partly drawn) . Output Ratio: 0.5
